- assay remarks: Pharmacokinetic evaluation test in rats
- Type: in vivo, SD rats
- recorded conditions: male, SD, rat, plasma, po, 100 mg/kg, male SD rats, p.o. 100 mg/kg, mean, n = 3; read-out: tz1/2 (terminal half-life) (converted)
parameter measured: half-life (min)
Quick reminder: number only, in min, skip the unit.

half-life recorded for this compound, Nc1nccn2c(C34CCC(NC(=O)CN5CCOCC5)(CC3)C4)nc(-c3ccc(C(=O)Nc4cc(C(F)(F)F)ccn4)cc3)c12 (single isomer, unassigned) [Crystal form II] , is 464

* * *

- assay remarks: Stability evaluation under influencing factors
- Assay type: physicochemical
- recorded conditions: RH 92.5%, 30 days
parameter measured: Purity % (%)
Quick reminder: number only, in %, skip the unit.

Purity % recorded for this compound, Nc1nccn2c(C34CCC(NC(=O)CN5CCOCC5)(CC3)C4)nc(-c3ccc(C(=O)Nc4cc(C(F)(F)F)ccn4)cc3)c12 [Compound of formula (I)] , is 99.7

Purity % recorded for this compound, Nc1nccn2c(C34CCC(NC(=O)CN5CCOCC5)(CC3)C4)nc(-c3ccc(C(=O)Nc4cc(C(F)(F)F)ccn4)cc3)c12 (single isomer, unassigned) [Crystal form II] , is 99.3

Purity % recorded for this compound, Nc1nccn2c(C34CCC(NC(=O)CN5CCOCC5)(CC3)C4)nc(-c3ccc(C(=O)Nc4cc(C(F)(F)F)ccn4)cc3)c12 (single isomer, unassigned) [Crystal form I] , is 98.7

Purity % recorded for this compound, Nc1nccn2c(C34CCC(NC(=O)CN5CCOCC5)(CC3)C4)nc(-c3ccc(C(=O)Nc4cc(C(F)(F)F)ccn4)cc3)c12 (single isomer, unassigned) [Crystal form III] , is 98.7

* * *

I'd be grateful if you could share measured Solubility for these entries.
- assay remarks: Solubility test in pH 4.5 acetate buffer solution
- Type: physicochemical
- recorded conditions: saturated solution, 37° C., 200 rpm, 24 h
Quick reminder: number only, in µg/mL, skip the unit.

Solubility recorded for this compound, Nc1nccn2c(C34CCC(NC(=O)CN5CCOCC5)(CC3)C4)nc(-c3ccc(C(=O)Nc4cc(C(F)(F)F)ccn4)cc3)c12 (single isomer, unassigned) [Crystal form III] , is 98

Solubility recorded for this compound, Nc1nccn2c(C34CCC(NC(=O)CN5CCOCC5)(CC3)C4)nc(-c3ccc(C(=O)Nc4cc(C(F)(F)F)ccn4)cc3)c12 (single isomer, unassigned) [Crystal form I] , is 273

Solubility recorded for this compound, Nc1nccn2c(C34CCC(NC(=O)CN5CCOCC5)(CC3)C4)nc(-c3ccc(C(=O)Nc4cc(C(F)(F)F)ccn4)cc3)c12 [Compound of formula (I)] , is 65

Solubility recorded for this compound, Nc1nccn2c(C34CCC(NC(=O)CN5CCOCC5)(CC3)C4)nc(-c3ccc(C(=O)Nc4cc(C(F)(F)F)ccn4)cc3)c12 (single isomer, unassigned) [Crystal form II] , is 375

* * *

- assay remarks: Pharmacokinetic evaluation test in rats
- Assay type: in vivo, SD rats
- recorded conditions: male, SD, rat, plasma, po, 100 mg/kg, male SD rats, p.o. 100 mg/kg, mean, n = 3; read-out: Cmax
parameter measured: Cmax
State the result as a value with its unit after it.

Cmax recorded for this molecule, Nc1nccn2c(C34CCC(NC(=O)CN5CCOCC5)(CC3)C4)nc(-c3ccc(C(=O)Nc4cc(C(F)(F)F)ccn4)cc3)c12 (single isomer, unassigned) [Crystal form II] , is 145 µg/mL
